- Target entity: LuxS of E. coli (Escherichia coli O157:H7, UniProt Q8X902)
- Construct: endogenous in cells; host or cells: E. coli O157:H7 (ATCC 43895)
- Sequence (Q8X902 2-171): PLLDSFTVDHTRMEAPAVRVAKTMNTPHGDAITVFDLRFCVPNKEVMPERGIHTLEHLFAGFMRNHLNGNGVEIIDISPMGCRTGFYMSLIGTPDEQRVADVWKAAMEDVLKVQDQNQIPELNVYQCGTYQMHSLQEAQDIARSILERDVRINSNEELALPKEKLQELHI
- Test summary: AI-2 bioluminescence assay (V. harveyi BB170 reporter) of AI-2 production
- Format: cell-based
- Condition context: IC50, AI-2 bioluminescence assay; E. coli O157:H7 cultured 16 h with inhibitor, supernatant read with V. harveyi BB170
In this section, each of the compounds is paired with its reported pIC50.
Please treat pIC50 as minus the base-10 logarithm of the molar concentration.

Recorded pIC50 for "Cc1ccc(C(=O)NCc2ccc3c(c2)CCN3C(=O)c2ccc(Cl)cc2)cc1" , please?
4.73

State the recorded pIC50 for this entry: "O=C(NCc1nc(-c2ccc3c(c2)ncn3C2CCCC2)no1)c1ccccc1"
4.87

Recorded pIC50 of "O=C(N/N=C/c1ccc(O)c(O)c1)c1cc(-c2ccc3ccccc3c2)n[nH]1" , please.
5.12

====

- Target entity: LuxS of E. coli (Escherichia coli O157:H7)
- Construct: endogenous in cells; host or cells: E. coli O157:H7 (ATCC 43895)
- Test summary: AI-2 bioluminescence assay (V. harveyi BB170 reporter) of AI-2 production
- Assay type: cell-based
- Condition context: IC50, AI-2 bioluminescence assay; E. coli O157:H7 cultured 16 h with inhibitor, supernatant read with V. harveyi BB170
// values below are reported pIC50
Just so you know, pIC50 here is -log10 of the concentration in molar units; reply with that number alone.

Observe how each entry below is paired with its result.
> print(dat)
                                   compound  reported.property  value.measured
1  Cc1cc(CNC(=O)Nc2cccc3c2CCCC3)c(C)n1-c1ccccc1 [E983-1808]              pIC50            4.66
2  COc1cccc(NC(=O)CSCc2cc(=O)c3ccccc3[nH]2)c1 [G751-0153]              pIC50            4.77
3  O=C(NCc1ccc2c(c1)CCN2C(=O)c1ccccc1)c1ccc(Cl)cc1 [G883-0595]              pIC50            4.73
4  O=C(NCc1nc2ccccc2[nH]1)c1ccccc1 [0180-0358]              pIC50            4.65
5  O=C(NCc1ccc2c(c1)CCN2C(=O)c1ccccc1)c1ccc(Br)cc1 [G883-0627]              pIC50            4.71
6  CCc1ccc(NC(=O)CSCc2cc(=O)c3cc(CC)ccc3[nH]2)cc1 [G751-5495]              pIC50            4.61

Look at this compound and give its reported pIC50. CCCc1c(C)c2ccc(OC(=O)CNC(=O)c3ccccc3)cc2oc1=O [Y040-2389]
4.89

Which pIC50 is reported for this compound? Cc1ccc(C(=O)N2CCc3cc(CNC(=O)c4ccc(Br)cc4)ccc32)cc1 [G883-0331]
4.82

Fill in: pIC50 of COc1ccc2[nH]c(C(=O)NC3CCC(CN4Cc5ccccc5C4=O)CC3)c(C)c2c1 (stereo not drawn) [D753-0186] is ___
4.72

====

- Target entity: LuxS (Escherichia coli O157:H7, UniProt Q8X902)
- Sequence (Q8X902 2-171): as above
- Test summary: Surface plasmon resonance (BIAcore T200) binding
Listing: pKd of selected compounds
Note on units: pKd is unitless, being -log10 of a concentration expressed in mol/L.

> print(dat)
                                   compound                             target.entity  value.measured
1  O=C(N/N=C/c1ccc(O)c(O)c1)c1cc(-c2ccc3ccccc3c2)n[nH]1  LuxS (Escherichia coli O157:H7, UniProt Q8X902)            4.73

As a next step, examine the compound that follows.
Form field: reported pKd of "CCC(=O)N1CCc2cc(-c3ccc(C(=O)NCc4ccc(N(C)C)cc4)cc3)ccc21"
4.11
